Source listed as ChEMBL document CHEMBL1811916.

System: GluK3/GluK1 Ki ratio (Rattus norvegicus)
Experiment: Ratio of Ki for rat GluK3 to Ki for rat GluK1
# Ratio Ki per record follows
Kindly provide the number alone.

{"structure": "N[C@@H](Cn1c(=O)n(Cc2ccsc2C(=O)O)c(=O)c2sccc21)C(=O)O", "target.or.test.system": "GluK3/GluK1 Ki ratio (Rattus norvegicus)", "Ratio Ki": 95}
{"structure": "N[C@@H](Cn1c(=O)[nH]c(=O)c2cscc21)C(=O)O", "target.or.test.system": "GluK3/GluK1 Ki ratio (Rattus norvegicus)", "Ratio Ki": 262}

Now let's try a different one.
Q: Assign Ratio Ki to the following record: `N[C@@H](Cn1c(=O)[nH]c(=O)c2ccsc21)C(=O)O`
Ans: 806

----------
Efficacy overview
Experiment: Agonist activity at non-desensitized homomeric rat GluK3 mutant expressed in Xenopus oocytes at 1 mM by two-electrode voltage-clamp electrophysiology
Format: functional, Oocyte
Answer using only a numeral; do not append any unit.

{"compound": "N[C@@H](Cn1c(=O)n(Cc2ccsc2C(=O)O)c(=O)c2sccc21)C(=O)O", "Efficacy": 0.0015}
{"compound": "Cc1cn(C[C@H](N)C(=O)O)c(=O)n(Cc2ccsc2C(=O)O)c1=O", "Efficacy": 0}
{"compound": "N[C@@H](Cn1c(=O)[nH]c(=O)c2ccsc21)C(=O)O", "Efficacy": 0.0016}
{"compound": "N[C@@H](Cn1c2c(c(=O)[nH]c1=O)CCC2)C(=O)O", "Efficacy": 0}
{"compound": "N[C@@H](Cn1c(=O)n(Cc2ccsc2C(=O)O)c(=O)c2cscc21)C(=O)O", "Efficacy": 0}
{"compound": "N[C@@H](Cn1c2c(c(=O)[nH]c1=O)CSC2)C(=O)O", "Efficacy": 0}
{"compound": "N[C@@H](CCC(=O)O)C(=O)O [GLUTAMIC ACID]", "Efficacy": 1}
{"compound": "N[C@@H](Cn1c(=O)[nH]c(=O)c2sccc21)C(=O)O", "Efficacy": 0}
{"compound": "C=C(C)[C@H]1CN[C@H](C(=O)O)[C@H]1CC(=O)O [KAINIC ACID]", "Efficacy": 0.155}
{"compound": "CC(C)[C@H]1CN[C@H](C(=O)O)[C@H]1CC(=O)O [DIHYDROKAINATE]", "Efficacy": 0.018}

Q: Give the measured Efficacy for `N[C@@H](Cn1c(=O)[nH]c(=O)c2cscc21)C(=O)O`
Ans: 0.002

Q: Name the recorded Efficacy of the item C[C@H](C[C@H](N)C(=O)O)C(=O)O [2S,4R-4-METHYLGLUTAMATE] in your answer.
Ans: 0.87

----------
Below: a set of entries, each annotated with reported Efficacy.
Test: Agonist activity at Non-desensitized homomeric rat GluK1(Q)1b mutant expressed in Xenopus oocytes at 1 mM by two-electrode voltage-clamp electrophysiology
Type: functional, Oocyte
Kindly provide the number alone.

Example cases with answers are listed next.
{"molecule": "N[C@@H](CCC(=O)O)C(=O)O", "Efficacy": 1}
{"molecule": "C[C@H](C[C@H](N)C(=O)O)C(=O)O [2S,4R-4-METHYLGLUTAMATE]", "Efficacy": 0.991}
{"molecule": "N[C@@H](Cn1c(=O)[nH]c(=O)c2cscc21)C(=O)O", "Efficacy": 0.562}

Q: Supply Efficacy value. Item: `N[C@@H](Cn1c2c(c(=O)[nH]c1=O)CCC2)C(=O)O`
Ans: 0.459

Q: Report Efficacy for `N[C@@H](Cn1c(=O)[nH]c(=O)c2ccsc21)C(=O)O`
Ans: 0.562
